Target: Sigma non-opioid intracellular receptor 1 (Rattus norvegicus)
Sequence (Q9R0C9 whole entry): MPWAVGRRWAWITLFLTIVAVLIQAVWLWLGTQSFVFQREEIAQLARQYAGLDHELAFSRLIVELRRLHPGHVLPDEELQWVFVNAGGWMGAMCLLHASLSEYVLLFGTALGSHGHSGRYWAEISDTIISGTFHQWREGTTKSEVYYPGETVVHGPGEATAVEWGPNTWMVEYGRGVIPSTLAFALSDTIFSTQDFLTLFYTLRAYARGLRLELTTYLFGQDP
Assay: Displacement of [3H](+)-pentazocine from sigma 1 receptor in rat brain homogenate after 2.5 hrs by liquid scintillation counting
Assay metric: Ki (nM)
Please respond with the number in nM and leave the unit unwritten.

q: Check Sigma non-opioid intracellular receptor 1 (Rattus norvegicus) data and give Ki for c1ccc(CCN2CCN(Cc3cc4ccccc4o3)CC2)cc1 .
a: 7.3

q: Retrieve Ki on Sigma non-opioid intracellular receptor 1 (Rattus norvegicus); query COc1cccc(CCCN2CCN(Cc3cc4ccccc4o3)CC2)c1
a: 5.7

q: Report measured Ki on Sigma non-opioid intracellular receptor 1 (Rattus norvegicus); entry: c1ccc(CCCN2CCN(Cc3cc4ccccc4o3)CC2)cc1
a: 5.7

q: Give Ki; test system Sigma non-opioid intracellular receptor 1 (Rattus norvegicus); compound COc1cccc(CCCCN2CCN(Cc3cc4ccccc4o3)CC2)c1
a: 7.6

q: GET Ki | system: Sigma non-opioid intracellular receptor 1 (Rattus norvegicus) | item: COc1cccc(CCN2CCN(Cc3cc4ccccc4o3)CC2)c1
a: 13

q: Enter Ki (test system Sigma non-opioid intracellular receptor 1 (Rattus norvegicus)) for COc1ccccc1CCN1CCN(Cc2cc3ccccc3o2)CC1
a: 17

q: Report the value of Ki obtained on Sigma non-opioid intracellular receptor 1 (Rattus norvegicus) for COc1ccc(CCCN2CCN(Cc3cc4ccccc4o3)CC2)cc1 .
a: 3.1

q: Check Sigma non-opioid intracellular receptor 1 (Rattus norvegicus) data and give Ki for COc1ccc(CCN2CCN(Cc3cc4ccccc4o3)CC2)cc1 .
a: 9.4

q: State Ki on Sigma non-opioid intracellular receptor 1 (Rattus norvegicus). Entry: COc1ccc(CCCCN2CCN(Cc3cc4ccccc4o3)CC2)cc1
a: 13

q: Fill in Ki for COc1ccccc1CCCCN1CCN(Cc2cc3ccccc3o2)CC1 tested with Sigma non-opioid intracellular receptor 1 (Rattus norvegicus).
a: 16

q: GET Ki | system: Sigma non-opioid intracellular receptor 1 (Rattus norvegicus) | item: c1ccc(CCCCN2CCN(Cc3cc4ccccc4o3)CC2)cc1
a: 4.2

q: State the measured Ki (Sigma non-opioid intracellular receptor 1 (Rattus norvegicus)) of COc1ccccc1CCCN1CCN(Cc2cc3ccccc3o2)CC1
a: 8.3

Hello, the source for this data is ChEMBL document CHEMBL1833923, in case you need it.
